Could you please report measured chromatographic logP for the items listed next?
PROCEDURE_SUMMARY: logP determination by HPLC on a reversed-phase column (C18), EEC Directive 79/831 Annex V.A8
Type: physicochemical
MEASUREMENT_PARAMETERS: reversed-phase HPLC column (C18), HPLC-MS, reversed-phase column (C18); read-out: log P
Respond using a number only.

Recorded result, CC[S+]([O-])c1cc(C(F)(C(F)(F)F)C(F)(F)F)cnc1-n1cc(-c2ccc(Cl)c(C(=O)NC3CC3)c2)cn1 (stereo not shown) , chromatographic logP: 3.8

Sure, the documented chromatographic logP for "Cc1cc(C(F)(C(F)(F)F)C(F)(F)F)cc(C)c1-n1cc(-c2ncc(Cl)c(C(=O)NC3CC3)n2)cn1" is 4.5

# chromatographic logP (molecule: "CCSc1cc(C(F)(C(F)(F)F)C(F)(F)F)cnc1-n1cc(-c2ccc(Cl)c(C(=O)NC3CC3)c2)cn1" ) is 4.7

chromatographic logP for "Cc1cc(C(F)(C(F)(F)F)C(F)(F)F)cc(C(F)(F)F)c1-n1cc(-c2ccc(Cl)c(C(=S)NC3CC3)c2)cn1" is 5

====

Please respond with reported chromatographic logP for every item in the list.
PROCEDURE_SUMMARY: logP determination by HPLC on a reversed-phase column (C18), EEC Directive 79/831 Annex V.A8
Format: physicochemical
MEASUREMENT_PARAMETERS: reversed-phase HPLC column (C18), HPLC, reversed-phase C18, acetonitrile/water with formic acid, 55° C.; read-out: logP
Enter the number alone.

molecule "COc1cc(C(F)(F)F)cc(F)c1-n1cc(-c2ccc(Cl)c(C(=O)NC3CC3)c2)cn1" , chromatographic logP observed: 3.1

Record summary for "CCc1cc(C(F)(C(F)(F)F)C(F)(F)F)cc(Cl)c1N" : reported chromatographic logP = 4.67

# chromatographic logP of "Cc1cc(C(F)(C(F)(F)F)C(F)(F)F)cc(C)c1-c1ccn(-c2ccc(Cl)c(C(=O)NC3CC3)c2)n1" = 4.9

====

PROCEDURE_SUMMARY: logP determination by HPLC on a reversed-phase column (C18), EEC Directive 79/831 Annex V.A8
Assay type: physicochemical
MEASUREMENT_PARAMETERS: HPLC-MS method a), Table I-T3
Kindly supply the reported logP^a) values for the records listed here.
Provide a numeric answer; units are not to be included.

Record "O=C(NC1CC1)c1cc(-c2cnn(-c3ccc(C(F)(C(F)(F)F)C(F)(F)F)cc3Cl)c2)ccc1Cl" , field logP^a): 4.3

logP^a) measured on "CCc1cc(C(F)(C(F)(F)F)C(F)(F)F)cc(C)c1-n1cc(-c2ccc(Cl)c(C(=O)NC3CC3)c2F)cn1" = 4.8

logP^a) for "N#CC1(NC(=O)c2cc(-c3cnn(-c4ncc(C(F)(F)F)cc4Cl)c3)ccc2Cl)CC1" is 3.1

Form field logP^a), entry "O=C(NCC(F)(F)F)c1cc(-c2cnn(-c3ccc(C(F)(C(F)(F)F)C(F)(F)F)cc3OC(F)(F)F)c2)ccc1Cl" : 5.0

====

PROCEDURE_SUMMARY: logP determination by HPLC on a reversed-phase column (C18), EEC Directive 79/831 Annex V.A8
Type: physicochemical
MEASUREMENT_PARAMETERS: HPLC, reversed-phase C18, acetonitrile/water with formic acid, 55° C.
Consider the following compounds; for each one, report its logP.
Answer as a number with no unit attached.

// field: logP; key: "Cc1cc(C(F)(C(F)(F)F)C(F)(F)F)cc(C(F)(F)F)c1-c1cc(-c2cnc(Cl)c(C(=O)NC3CC3)c2)on1" ; value = 4.5

Documented logP of "Cc1cc(C(F)(C(F)(F)F)C(F)(F)F)cc(C)c1-c1cc(-c2ccc(Cl)c(C(=O)NCC(F)(F)F)c2)on1" : 5

Measured logP of "Cc1cc(C(F)(C(F)(F)F)C(F)(F)F)cc(C)c1-c1cc(-c2ccc(Cl)c(C(=O)NC3(C#N)CC3)c2)on1" : 4.6

====

Assign log P to each entry below.
PROCEDURE_SUMMARY: logP determination by HPLC on a reversed-phase column (C18), EEC Directive 79/831 Annex V.A8
Assay type: physicochemical
MEASUREMENT_PARAMETERS: HPLC on reversed-phase column (C18)

Lab note: measured log P of N#CC1(NC(=O)c2cc(-c3cnn(-c4c(I)cc(C(F)(C(F)(F)F)C(F)(F)F)cc4OC(F)(F)F)c3)ccc2Cl)CC1 [I-T3-226] was 4.6

Reported log P ( O=C(NC1CC1)c1cc(-c2cnn(-c3c(Cl)cc(C(F)(C(F)(F)F)C(F)(F)F)cc3OC(F)F)c2)ccc1Cl [I-T3-214] ) = 4.3

Recorded log P (compound O=C(NC1CC1)c1cc(-c2cnn(-c3c(F)cc(C(F)(F)F)cc3Cl)c2)ccc1Cl [I-T3-186] ): 3.6

// CC[S+]([O-])c1cc(C(F)(C(F)(F)F)C(F)(F)F)cc(Cl)c1-n1cc(-c2ccc(Cl)c(C(=O)NC3(C#N)CC3)c2)cn1 (stereo not shown) [I-T3-195] : log P value = 3.8

====

System: Amblyomma hebraeum
PROCEDURE_SUMMARY: Amblyomma hebraeum test (tick nymphs, immersion)
Format: in vivo
MEASUREMENT_PARAMETERS: application rate 100 ppm; tick nymphs immersed for one minute; kill after 42 days
TEST_READOUT: efficacy (%)
API: value field is a number in %; no unit string.

Sure, the documented efficacy for "O=C(NC1CC1)c1cc(-c2cnn(-c3c(F)cc(C(F)(C(F)(F)F)C(F)(F)F)cc3F)c2)ccc1Cl" is 80

Looking up "Cc1cc(C(F)(C(F)(F)F)C(F)(F)F)cc(C(F)(F)F)c1-n1cc(-c2cnc(C)c(C(=O)NC3CC3)c2)cn1" , I see its efficacy listed as 100

// recorded efficacy for "Cc1cc(C(F)(C(F)(F)F)C(F)(F)F)cc(C(F)(F)F)c1-n1cc(-c2cnc(Cl)c(C(=O)NC3(C#N)CC3)c2)cn1" : 100

The compound "N#CC1(NC(=O)c2cc(-c3cnn(-c4c(Cl)cc(C(F)(C(F)(F)F)C(F)(F)F)cc4C(F)(F)F)c3)cnc2Cl)CC1" showed efficacy equal to 100

// recorded efficacy for "N#CC1(NC(=O)c2cc(-c3cnn(-c4c(Cl)cc(C(F)(C(F)(F)F)C(F)(F)F)cc4C(F)(F)F)c3)ccc2Cl)CC1" : 100

Measured efficacy, "N#CC1(NC(=O)c2cc(-c3cnn(-c4ccc(C(F)(C(F)(F)F)C(F)(F)F)cc4C(F)(F)F)c3)ccc2Cl)CC1" : 80

====

Test system: Rhipicephalus sanguineus
PROCEDURE_SUMMARY: Rhipicephalus sanguineus - in vitro contact tests with adult brown dog ticks
Type: in vivo
MEASUREMENT_PARAMETERS: application rate 5 μg/cm^2, after 48 h (dead or moribund)
Procedure: Rhipicephalus sanguineus—In Vitro Contact Tests with Adult Brown Dog Ticks For the coating of the test tubes, 9 mg of active ingredient are first dissolved in 1 ml of acetone p.a. and then diluted to the desired concentration with acetone p.a. 250 μl of the solution are distributed homogeneously on the inner walls and base of a 25 ml test tube by turning and rocking on an orbital shaker (rocking rotation at 30 rpm for 2 h). […]
TEST_READOUT: efficacy

Record "CCc1cc(C(F)(C(F)(F)F)C(F)(F)F)cc(Cl)c1-n1cc(-c2ccc(Cl)c(C(=O)NC3(C#N)CC3)c2)cn1" ; system Rhipicephalus sanguineus; efficacy = 100%

Entry "Cc1cc(C(F)(C(F)(F)F)C(F)(F)F)cc(C(F)(F)F)c1-c1cc(-c2ccc(Cl)c(C(=O)NC3(C#N)CC3)c2)on1" , tested on Rhipicephalus sanguineus, has a reported efficacy of 100%

efficacy for Rhipicephalus sanguineus with input "O=C(NC1CC1)c1cc(-c2cnn(-c3c(Cl)cc(C(F)(C(F)(F)F)C(F)(F)F)cc3C(F)(F)F)c2)cnc1Cl" equals 100%

efficacy value, target or system Rhipicephalus sanguineus, for "Cc1cc(C(F)(C(F)(F)F)C(F)(F)F)cc(C)c1-n1cc(-c2cnc(C)c(C(=O)NC3CC3)c2)cn1" : 100%

====

PROCEDURE_SUMMARY: logP determination by HPLC on a reversed-phase column (C18), EEC Directive 79/831 Annex V.A8
Assay type: physicochemical
MEASUREMENT_PARAMETERS: HPLC-MS method a), Table I-T3
Provide the recorded logP^a) for the entries that follow.
The response must contain the number and no unit.

Reported logP^a) for "N#CC1(NC(=O)c2cc(-c3cnn(-c4c(Cl)cc(C(F)(C(F)(F)F)C(F)(F)F)cc4Cl)c3)cnc2Cl)CC1" was 3.8

The molecule identified as "O=C(NC1CC1)c1cc(-c2cnn(-c3c(Cl)cc(OC(F)(F)F)cc3Cl)c2)ccc1Cl" registered its logP^a) at 3.6

Documented logP^a) of "Cc1cc(C(F)(C(F)(F)F)C(F)(F)F)cc(C)c1-n1cc(-c2ccc(Cl)c(C(=O)NC3(C(F)(F)F)CC3)c2)cn1" : 4.6

Record summary for "CCc1cc(C(F)(C(F)(F)F)C(F)(F)F)cc(C)c1-n1cc(-c2ccc(Cl)c(C(=O)NCC(F)(F)F)c2)cn1" : reported logP^a) = 5.0

Form: molecule = "CCc1cc(C(F)(C(F)(F)F)C(F)(F)F)ccc1-n1cc(-c2cccc(C(=O)NC3CC3)c2F)cn1" ; logP^a) = 4.7

Summary for this molecule, "N#CC1(NC(=O)c2cc(-c3cnn(-c4c(F)cc(C(F)(F)F)cc4F)c3)ccc2Cl)CC1" : logP^a) is 3.2

Form field logP^a), entry "O=C(NC1CC1)c1cc(-c2cnn(-c3ncc(C(F)(F)F)cc3Cl)c2)ccc1Cl" : 3.2

The molecule "CCc1cc(C(F)(C(F)(F)F)C(F)(F)F)cc(C)c1-n1cc(-c2cncc(C(=O)NC3(C#N)CC3)c2)cn1" showed logP^a) equal to 3.4

Input "O=C(NC1CC1)c1cc(-c2cnn(-c3ccc(OC(F)(F)F)cc3Cl)c2)ccc1Cl" . Output logP^a): 3.6

Quick note, logP^a) for "CCc1cc(C(F)(C(F)(F)F)C(F)(F)F)cc(C)c1-n1cc(-c2ccc(Cl)c(C(=O)NC3(C#N)CC3)c2F)cn1" landed at 4.6

# logP^a) of "N#CC1(NC(=O)c2cc(-c3cnn(-c4ccc(C(F)(C(F)(F)F)C(F)(F)F)cc4C(F)(F)F)c3)ccc2Cl)CC1" = 4.3

The recorded logP^a) for "CCc1cc(C(F)(F)C(F)(F)F)cc(C)c1-n1cc(-c2ccc(Cl)c(C(=O)NC3CSC3)c2)cn1" is 4.6

Lab note: measured logP^a) of "Cc1cc(C(F)(C(F)(F)F)C(F)(F)F)cc(C)c1-n1cc(-c2cncc(C(=O)NC3(C#N)CC3)c2)cn1" was 3.4

response.value for "Cc1cc(C(F)(C(F)(F)F)C(F)(F)F)cc(C)c1-n1cc(-c2cc(C(=O)NC3(C#N)CC3)c(Cl)cc2F)cn1" (field: logP^a)) = 4.4

get_value(item= "Cc1cc(C(F)(C(F)(F)F)C(F)(F)F)cc(C)c1-n1cc(-c2cnc(Cl)c(C(=O)NC3(C#N)CC3)c2)cn1" , readout=logP^a)) returns 3.7

Just for reference, patent US9758485B2 is where these values come from.
